- Test system: LOC_OS01G63280-cb003
- assay_details: thermal shift delta Tm vs DMSO control; higher = stronger stabilization (binding);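 also: purified Escherichia coli-expressed rice kinase domain construct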
- measurement_context: 12.5 µM; protein concentration 2 µM
Category key, based on recorded thermal shift delta Tm: lower level = under 0.2 °C, middle level = from 0.2 °C up to 0.6 °C, upper level = 0.6 °C and over

Cc1cnc(Nc2ccc(N3CCN(C)CC3)cc2)nc1Nc1cccc(S(=O)(=O)NC(C)(C)C)c1	middle level
CNc1nc(Nc2cnn([C@H]3CCN(C4COC4)C[C@@H]3F)c2Cl)ncc1C(F)(F)F	lower level
O=c1cc(N2CCOCC2)oc2c(-c3cccc4c3sc3ccccc34)cccc12	lower level

Exercise: Dear colleague, I would appreciate it if you could identify the bin for Fc1ccc2[nH]ccc2c1-c1nc(N2CCOCC2)c2sc(CN3CCN(CC4CC4)CC3)cc2n1 and reply at your convenience.
Solution: upper level

----------
- Tested on: LOC_OS03G50810-cb003
- assay_details: thermal shift delta Tm vs DMSO control; higher = stronger stabilization (binding)
- measurement_context: 12.5 µM; protein concentration 2 µM
Structures can show the parent of a compound that is named as a salt.
Kind request: treat 0.8 °C as inclusive, so thermal shift delta Tm at 0.8 °C or higher is 1, anything lower is 0.

For orientation, consider the following solved cases.
CC(C)(C)c1cc(NC(=O)Nc2ccc(Oc3ccnc4[nH]c(=O)cnc34)cc2F)n(-c2ccccc2)n1	1
CN1C(=O)[C@@H](NC(=O)c2n[nH]c(Cc3ccccc3)n2)COc2ccccc21	0
Cn1sc(=O)n(Cc2ccccc2)c1=O	0
NC(=O)c1cnc(N[C@@H]2CCCC[C@@H]2N)nc1Nc1cccc(-n2nccn2)c1	1
Cn1cnc2c(F)c(Nc3ccc(Br)cc3Cl)c(C(=O)NOCCO)cc21 [Selumetinib (AZD6244)]	0
Nc1nccc(Oc2ccc(NC(=O)c3c[nH]cc(-c4ccc(F)cc4)c3=O)cc2F)c1Cl	1
COc1nccc(-c2c(-c3ccc(F)cc3)ncn2C2CCC(O)CC2)n1 (stereo not given)	0
CN1CCN(Cc2ccc(NC(=O)Nc3ccc(Oc4ccnc(N)n4)cc3)cc2C(F)(F)F)CC1	1

Exercise: // inclusive: thermal shift delta Tm at least 0.8 °C? input: C[C@H](Nc1ncnc2[nH]cnc12)c1cc2ccc(F)cc2nc1-c1ccccn1
Solution: 0

Exercise: // inclusive: thermal shift delta Tm at least 0.8 °C? input: Cc1cc(O)c(-c2ccc([C@@H](C)CN)cc2)c2c1[nH]c(=O)c1sccc12 [OTS514 hydrochloride]
Solution: 1

Exercise: // inclusive: thermal shift delta Tm at least 0.8 °C? input: Cc1cc(Nc2cc(N3CCN(C)CC3)nc(/C=C/c3ccccc3)n2)n[nH]1
Solution: 1

Exercise: // inclusive: thermal shift delta Tm at least 0.8 °C? input: Oc1cc(CNC(=S)/C=C/c2cc(O)c(O)c(Br)c2)cc(O)c1O
Solution: 0

Exercise: // inclusive: thermal shift delta Tm at least 0.8 °C? input: O=C1NC(=O)C(c2cnc3ccccn23)=C1c1cn2c3c(cc(F)cc13)CN(C(=O)N1CCCCC1)CC2
Solution: 1

Exercise: // inclusive: thermal shift delta Tm at least 0.8 °C? input: CS(=O)(=O)c1ccc(-c2cnc(N)c(C(=O)Nc3ccccc3)n2)cc1
Solution: 1

Exercise: // inclusive: thermal shift delta Tm at least 0.8 °C? input: COc1ccc(CNC(=O)Nc2ncc([N+](=O)[O-])s2)cc1
Solution: 0

Exercise: // inclusive: thermal shift delta Tm at least 0.8 °C? input: CN1CCCN(C(=O)c2cccc(-c3ccc(/C=C4/C(=O)Nc5ccc(Cl)cc54)o3)c2)CC1
Solution: 1

Exercise: // inclusive: thermal shift delta Tm at least 0.8 °C? input: COc1cc2ncnc(Nc3ccc(Oc4ccccc4)cc3C)c2cc1OC
Solution: 0

Exercise: // inclusive: thermal shift delta Tm at least 0.8 °C? input: Cc1cc(N2CCOCC2)cc2[nH]c(-c3c(NC[C@@H](O)c4cccc(Cl)c4)cc[nH]c3=O)nc12
Solution: 1
